Exercise: state measured pIC50 for each of the compounds provided.
biological target: human EHMT2 913-1193 (Homo sapiens); construct: recombinant purified human EHMT2 913-1193, Viva; purchased Viva; assay: EHMT2 enzyme assay on histone peptide substrate (EHMT2 PEP); format: biochemical; details: Table VI; read-out: EHMT2 PEP IC50
Sequence (Q96KQ7 913-1193): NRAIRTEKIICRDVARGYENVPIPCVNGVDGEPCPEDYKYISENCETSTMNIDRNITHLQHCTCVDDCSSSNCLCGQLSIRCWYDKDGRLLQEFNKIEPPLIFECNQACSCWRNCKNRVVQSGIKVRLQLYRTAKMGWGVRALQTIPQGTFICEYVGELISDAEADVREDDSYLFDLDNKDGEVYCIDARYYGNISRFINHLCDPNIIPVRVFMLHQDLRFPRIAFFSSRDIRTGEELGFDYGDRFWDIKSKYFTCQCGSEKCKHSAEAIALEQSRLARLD
pIC50: −log10 of the molar value.

Study these solved cases before continuing.
{"columns": ["compound", "pIC50"],
 "data": [
  ["CNc1nc(C2CN(C)C2)c2cc(OC)c(OCCCN3CCCC3)cc2n1", "> 7.00"],
  ["COc1cc2c(C3CCN(C)CC3)cc(-c3cn[nH]c3)nc2cc1OCCCN1CCCC1", "> 7.00"]
]}

For the 7 compounds below, give their pIC50 values.
1. COc1cc2c(C)nc(N3CCOCC3)nc2cc1OCCCN1CCCC1
2. CNc1ccnc(Nc2ccc(OC)c(OCC[C@@H]3CCCN3)c2)n1
3. CNc1cc(C)nc(Nc2cc(OCCCN3CCCC3)c3nccn3c2)n1
4. CNc1cc(C)nc(Nc2cc(OCCCN3CCCC3)c3ncnn3c2)n1
5. CCN1CC(COc2cc(Nc3cccn4cnnc34)ncc2OC)C1
6. COc1cnc(Nc2cccc3nncn23)nc1OCCCN1CCCC1
7. CNCCNC(C)c1cc(Nc2nc(C)cc(NC)n2)ccc1OC (stereo not drawn)

A:
["< 5.00", "5.00 to 6.00", "5.00 to 6.00", "5.00 to 6.00", "< 5.00", "< 5.00", "6.00 to 7.00"]

---

Target: EHMT2 (Homo sapiens, UniProt Q96KQ7)
Construct: host or cells: MDA-MB-231
Sequence (Q96KQ7 whole entry): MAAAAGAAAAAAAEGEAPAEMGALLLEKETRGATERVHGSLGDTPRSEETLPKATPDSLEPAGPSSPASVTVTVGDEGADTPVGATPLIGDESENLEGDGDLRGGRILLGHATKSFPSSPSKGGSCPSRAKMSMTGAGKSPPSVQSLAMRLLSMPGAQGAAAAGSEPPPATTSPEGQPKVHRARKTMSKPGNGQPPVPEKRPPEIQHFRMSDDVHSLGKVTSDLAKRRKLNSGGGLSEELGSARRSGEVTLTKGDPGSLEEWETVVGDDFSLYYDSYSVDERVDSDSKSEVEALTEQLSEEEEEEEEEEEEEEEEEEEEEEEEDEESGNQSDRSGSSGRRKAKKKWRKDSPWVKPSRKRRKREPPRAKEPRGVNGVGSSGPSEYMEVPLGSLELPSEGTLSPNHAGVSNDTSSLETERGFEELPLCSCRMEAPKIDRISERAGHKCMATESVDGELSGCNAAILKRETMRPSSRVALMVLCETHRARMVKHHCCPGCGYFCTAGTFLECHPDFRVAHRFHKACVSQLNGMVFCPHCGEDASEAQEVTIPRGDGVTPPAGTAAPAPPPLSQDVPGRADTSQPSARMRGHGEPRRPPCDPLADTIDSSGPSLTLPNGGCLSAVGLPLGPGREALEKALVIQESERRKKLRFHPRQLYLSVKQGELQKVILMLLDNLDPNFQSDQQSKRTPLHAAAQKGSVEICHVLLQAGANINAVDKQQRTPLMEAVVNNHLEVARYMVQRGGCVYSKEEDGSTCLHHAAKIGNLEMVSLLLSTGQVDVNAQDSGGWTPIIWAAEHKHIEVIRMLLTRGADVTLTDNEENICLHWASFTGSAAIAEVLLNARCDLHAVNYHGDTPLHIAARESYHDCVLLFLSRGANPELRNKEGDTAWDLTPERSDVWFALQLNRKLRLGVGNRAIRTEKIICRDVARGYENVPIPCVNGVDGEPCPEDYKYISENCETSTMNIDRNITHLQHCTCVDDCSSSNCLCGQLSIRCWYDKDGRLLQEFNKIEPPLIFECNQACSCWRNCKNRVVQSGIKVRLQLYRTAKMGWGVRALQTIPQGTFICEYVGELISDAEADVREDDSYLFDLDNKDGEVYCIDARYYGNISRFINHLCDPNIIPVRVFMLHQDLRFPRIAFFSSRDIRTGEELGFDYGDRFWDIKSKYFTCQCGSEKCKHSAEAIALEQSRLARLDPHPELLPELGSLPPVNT
Experiment: MDA-MB-231 H3K9me2 in-cell Western assay (EHMT2 ICW)
Type: cell-based
Conditions: H3K9me2 in-cell Western, MDA-MB-231 cells; read-out: EHMT2 ICW (IC50 μM)
Method: RPMI/Glutamax medium, Penicillin-Streptomycin, Heat Inactivated Fetal Bovine Serum, and D-PBS were purchased from Life Technologies (Grand Island, N.Y., USA). […] Compound (100 nL) was added directly to 384-well cell plate. […] Plates were allowed to dry at room temperature then imaged on a Licor Odyssey Infrared Scanner (Licor Biosciences) which measured integrated intensity at 700 nm and 800 nm wavelengths. […] First, the ratio for each well was determined by: […]
Exercise: state measured IC50 for each of the molecules provided.

Study these solved cases before continuing.
{"columns": ["molecule", "IC50"],
 "data": [
  ["CNc1ccnc(Nc2ccc(OC)c(OCc3nnc(C4CC4)[nH]3)c2)n1", "> 10 µM"],
  ["CNc1cc(C)nc(Nc2ccc(OC)c(OC(C#N)CCN3CCCC3)c2)n1 (stereo not drawn)", "1 to 10 µM"],
  ["CNc1nc(C2CCN(C)CC2)c2cc(OC)c(OCCCN3CC4CC4C3)cc2n1 (stereo not drawn)", "0.1 to 1 µM"],
  ["COc1ncc(Nc2nc(C)cc(NC(C)C)n2)cc1OCCCN1CCCC1", "0.1 to 1 µM"],
  ["CNc1cc(C)nc(Nc2ccc(OC)c(OC[C@@H]3CN(C)C[C@@H]3O)c2)n1", "0.1 to 1 µM"]
]}

For the 4 molecules below, give their IC50 values.
1. CNc1cc(C)nc(Nc2ccc(OC)c(OC3CCN(C)CC3)c2)n1
2. CNc1cc(C)nc(Nc2ccc(OC)c(OCCCN3CCCC3C)c2)n1 (stereo not drawn)
3. COc1cc(NC2CCCNC2)ccc1OCCCN1CCCC1 (stereo not drawn)
4. COc1cnc(Nc2cc(C)nc3[nH]ncc23)cc1OCCCN1CCCC1

A:
> 10 µM
0.1 to 1 µM
> 10 µM
> 10 µM

For the 7 molecules below, give their IC50 values.
1. CCN1CC(COc2cc(Nc3cc(NC)nc(C)c3F)ncc2OC)C1
2. CNc1cc(C)nc(Nc2ccc(OC)c(OCCCN3CC(O)C3)c2)n1
3. CNc1nc(C2CCNCC2)c2cc(OC)c(OCCCN3CCCC3)cc2n1
4. CNc1nc(C2CCCC2)c2cc(OC)c(OCCCN3CCCC3)cc2n1
5. COc1ccc(NC2CCCNC2)cc1OCCCN1CCCC1 (stereo not drawn)
6. CCN1CC(COc2cc(Nc3cccc4nncn34)ncc2OC)C1
7. CNc1cc(C2CCN(C)CC2)c2cc(OC)c(OCCCN3CCCC3)cc2n1

A:
["> 10 µM", "0.1 to 1 µM", "1 to 10 µM", "1 to 10 µM", "> 10 µM", "> 10 µM", "< 0.1 µM"]

For the 2 molecules below, give their IC50 values.
1. COc1cc2c(C3CCN(C)CC3)nc(N3CCC(F)(F)CC3)nc2cc1OCCCN1CCCC1
2. COc1ncc(Nc2nc(C)cc(NCC3CCOCC3)n2)cc1OC[C@@H]1CCN(C2CCC2)C1 [Compound 595]

A:
1. 1 to 10 µM
2. 0.1 to 1 µM
